These entries and their values trace back to patent US20250320312A1.

Molecular target: T1, Peptide 8: Biotin-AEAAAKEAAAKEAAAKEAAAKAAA-Tyr-acid (N-terminal biotin; C-terminal acid; no PC)
T1 construct: control peptide without PC
T1 peptide: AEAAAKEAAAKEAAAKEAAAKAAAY
Test: scFv ELISA
Measured Endpoint: OD450 (OD450)
Respond numerically; units are OD450 and should not be typed.

# query: OD450 of entry PcOxP_DB02_C10 (scFv, V domains shown, scFv in periplasmic extract) VH: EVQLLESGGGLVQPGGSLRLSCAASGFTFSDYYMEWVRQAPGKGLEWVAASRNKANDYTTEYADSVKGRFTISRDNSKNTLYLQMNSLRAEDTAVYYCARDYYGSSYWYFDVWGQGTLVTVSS VL: DIVMTQSPDSLAVSLGERATINCTASESLYSSKHKVHYLAWYQQKPGQPPKLLIYGASNRYIGVPDRFSGSGSGTDFTLTISSLQAEDVAVYYCAQFYEYPLTFGGGTKVEIK
0.04

# query: OD450 of entry PcOxP_DB01_D11 (scFv, V domains shown, scFv in periplasmic extract) VH: EVQLLESGGGLVQPGGSLRLSCAASGFTFSSYYMEWVRQAPGKGLEWVAASRNKANDYTTEYADSVKGRFTISRDNSKNTLYLQMNSLRAEDTAVYYCARDYYGSSYWYNDVWGQGTLVTVSS VL: DIVMTQSPDSLAVSLGERATINCTASESLYSSKWKVHYLAWYQQKPGQPPKLLIYGASNRYIGVPDRFSGSGSGTDFTLTISSLQAEDVAVYYCAQFYSYPLTFGGGTKVEIK
0.05

# query: OD450 of entry PcOxP_DB03_H08 (scFv, V domains shown, scFv in periplasmic extract) VH: EVQLLESGGGLVQPGGSLRLSCAASGGTFSDFYMEWVRQAPGKGLEWVAASRNKANTYTTEYADSVKGRFTISRDNSKNTLYLQMNSLRAEDTAVYYCARDYYGSSYWYFDVWGQGTLVTVSS VL: DIQMTQSPSSLSASVGDRVTITCTASESLYSSKHKVHYLAWYQQKPGKAPKLLIYGSSNRYIGVPSRFSGSGSGTDFTLTISSLQPEDFATYYCAQFYQYPLTFGGGTKVEIK
0.06

# query: OD450 of entry PcOxP_DB01_B06 (scFv, V domains shown, scFv in periplasmic extract) VH: EVQLLESGGGLVQPGGSLRLSCAASGFTFSSYYMEWVRQAPGKGLEWVAASRNKYNDYTTEYADSVKGRFTISRDNSKNTLYLQMNSLRAEDTAVYYCARDYYGSSTWYFDVWGQGTLVTVSS VL: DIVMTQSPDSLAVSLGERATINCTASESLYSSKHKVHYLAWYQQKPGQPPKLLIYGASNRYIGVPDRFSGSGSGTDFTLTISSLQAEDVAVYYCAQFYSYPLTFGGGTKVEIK
0.05

# query: OD450 of entry PcOxP_DB01_G06 (scFv, V domains shown, scFv in periplasmic extract) VH: EVQLLESGGGLVQPGGSLRLSCAASGFTFSDYYMEWVRQAPGKGLEWVAASRNKWNDYTTEYADSVKGRFTISRDNSKNTLYLQMNSLRAEDTAVYYCARDYYGSSYWYFDVWGQGTLVTVSS VL: DIVMTQSPDSLAVSLGERATINCTASESLYSSKHKVHYLAWYQQKPGQPPKLLIYGASNRYSGVPDRFSGSGSGTDFTLTISSLQAEDVAVYYCAQFYSYPLTFGGGTKVEIK
0.04
